Conditions: 313.15 K; 3000 kPa; Liquid
Listing of entries alongside the reported mass density.
Give just the numeric value; kg/m3 need not be written.

Record excerpt, results attached:
compound: CCCCOC(C)=O [butyl ethanoate]
mass density (kg/m3): 862.7
--
compound: CCOC(C)=O [ethyl acetate]
mass density (kg/m3): 878.3
--
compound: CCCCCOC(C)=O [pentyl ethanoate]
mass density (kg/m3): 859.2

Turning to the following compound.
Find the recorded mass density belonging to CCCOC(C)=O [propyl ethanoate] and report it.
867.6

----------
Conditions: 343.15 K; 15000 kPa; Liquid
Listing of entries alongside the reported mass density.
Give just the numeric value; kg/m3 need not be written.

Record excerpt, results attached:
compound: CCOC(C)=O [ethyl acetate]
mass density / kg/m3: 857.3

compound: CCCOC(C)=O [propyl ethanoate]
mass density / kg/m3: 849.1

compound: CCCCOC(C)=O [butyl ethanoate]
mass density / kg/m3: 845.7

Turning to the following compound.
Find the recorded mass density belonging to CCCCCOC(C)=O [pentyl ethanoate] and report it.
843.2
